Measured AC50 of individual entries
- TESTED_SYSTEM: APOL1 G2 (Homo sapiens, UniProt O14791, DEL388-389)
- Construct: expressed in transfected cells; host or cells: HEK293 T-REx clonal line stably expressing GCaMP6f (HEK T-REx/GCaMP6f/APOL1 G2 K6.3), doxycycline induced
- Sequence (O14791 with tags, fused parts or gaps DEL388-389): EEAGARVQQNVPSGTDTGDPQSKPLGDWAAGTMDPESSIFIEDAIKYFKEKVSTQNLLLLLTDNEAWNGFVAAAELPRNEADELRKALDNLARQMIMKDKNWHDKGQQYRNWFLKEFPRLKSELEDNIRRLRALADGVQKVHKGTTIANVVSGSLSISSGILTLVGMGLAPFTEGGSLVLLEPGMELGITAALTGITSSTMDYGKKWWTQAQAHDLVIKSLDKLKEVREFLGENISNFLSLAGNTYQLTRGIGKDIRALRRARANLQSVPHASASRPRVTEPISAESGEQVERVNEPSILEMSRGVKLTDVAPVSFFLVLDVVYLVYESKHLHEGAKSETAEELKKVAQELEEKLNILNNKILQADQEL
- MEASUREMENT_NOTES: APOL1-mediated calcium transport (calcium influx) assay, HEK T-REx/GCaMP6f/APOL1 G2 K6.3 cells, FLIPR TETRA
- Assay type: cell-based
- PROTOCOL_CONDITIONS: prevention of calcium influx; geometric mean of at least 2 assay runs; † = average of a technical replicate from a single assay run
State the answer as a number, implicitly in nM.

Using known records, supply AC50 for CC(c1c(F)cc(OCCN2CCC3(CC2)C(=O)Nc2ccc(C#N)cc23)cc1F)S(C)(=O)=O (single isomer, unassigned) [Compound 138] 1220

Using known records, supply AC50 for O=C1Nc2ccc(Cl)cc2C12CCN(CCOc1ccc(C3CCCS3(=O)=O)cc1)CC2 (single isomer, unassigned) [Compound 176] 547

Using known records, supply AC50 for `Cc1cc(OCCN2CCC3(CC2)C(=O)Nc2ccc(C#N)cc23)cc(C)c1S(C)(=O)=O` 525

---

- TESTED_SYSTEM: APOL1 G2 (Homo sapiens, UniProt O14791, DEL388-389)
- Construct: expressed in transfected cells; host or cells: HEK293 T-REx clonal line stably expressing GCaMP6f (HEK T-REx/GCaMP6f/APOL1 G2 K6.3), doxycycline induced
- MEASUREMENT_NOTES: APOL1-mediated calcium transport (calcium influx) assay, HEK T-REx/GCaMP6f/APOL1 G2 K6.3 cells, FLIPR TETRA
- Type: cell-based
- PROTOCOL_CONDITIONS: prevention of calcium influx; geometric mean of at least 2 assay runs; † = average of a technical replicate from a single assay run
METRIC: AC50 (nM)
State the answer as a number, implicitly in nM.

Example results:
C[C@]1(O)C[C@@H](n2ccc3cc(OCCN4CCC5(CC4)C(=O)Nc4ccc(C(F)F)cc45)cnc32)C1 :: 113
N#Cc1ccc2c(c1)C1(CCN(CCOc3ccc4c(c3)CCN3C(=O)CCC43)CC1)C(=O)N2 (centres unmarked) [Compound 124] :: 727
C[C@@H](COc1ccc(S(C)(=O)=O)c(C(F)F)c1)N1CCC2(CC1)C(=O)Nc1ccc(C#N)cc12 (single isomer, unassigned) :: 1360

Please find the next compound below.
Using known records, supply AC50 for CC(O)c1ncc(OCCN2CCC3(CC2)C(=O)Nc2ccc(Cl)cc23)cn1 (single isomer, unassigned) [Compound 286] 917

---

Measured EC50 of individual entries
- Tested on: HEK293 clonal cell line overexpressing APOL1 G1
- MEASUREMENT_NOTES: APOL1 G1 HEK293 cell rescue assay (Example B3)
- Assay type: cell-based
- PROTOCOL_CONDITIONS: Homo sapiens, HEK293, HEK293 clonal line overexpressing APOL1 G1; geometric mean of at least 2 runs; † = single run; ¥ = concentration at 50% rescue estimated (no sigmoidal curve)
State the answer as a number, implicitly in nM.

C[C@]1(O)C[C@@H](n2c(=O)[nH]c3cc(OCCN4CCC5(CC4)C(=O)Nc4ccc(Cl)cc45)cc(C(F)(F)F)c32)C1 [Compound 468] :: 14.5
O=C1Nc2ccc(Cl)cc2C12CCN(CCOc1ccc3c(cnn3C3COC3)c1)CC2 [Compound 15] :: 279
CC(O)c1ncc(OCCN2CCC3(CC2)C(=O)Nc2ccc(C#N)cc23)cc1C(F)(F)F (stereo not shown) [Compound 338] :: 213

Please find the next compound below.
Provide EC50, system HEK293 clonal cell line overexpressing APOL1 G1, entry CC(O)c1ncc(OCCN2CCC3(CC2)C(=O)Nc2ccc(C(F)F)cc23)cc1C(F)(F)F (single isomer, unassigned) [Compound 287] 85.8

---

- Test system: HEK293 clonal cell line overexpressing APOL1 G1
- MEASUREMENT_NOTES: APOL1 G1 HEK293 cell rescue assay (Example B3)
- Type: cell-based
- PROTOCOL_CONDITIONS: Homo sapiens, HEK293, HEK293 clonal line overexpressing APOL1 G1; geometric mean of at least 2 runs; † = single run; ¥ = concentration at 50% rescue estimated (no sigmoidal curve)
Entries whose EC50 is below 100 nM take rule met; entries at or above 100 nM take rule not met.

[2H]C([2H])([2H])N1C(=O)C2(CCN(CCOc3cnc(C4(S(C)(=O)=O)CC4)nc3)CC2)c2cc(Cl)ccc21 :: rule not met

Find out if reported EC50 for CN=S(C)(=O)c1ccc(OCCN2CCC3(CC2)C(=O)Nc2ccc(C#N)cc23)cc1 (stereo not shown) [Compound 150] is less than 100 nM rule not met

Find out if reported EC50 for O=C1CCc2cc(OCCN3CCC4(CC3)C(=O)Nc3ccc(Cl)cc34)cnc2N1C1CC(CO)C1 (stereo not shown) is less than 100 nM rule not met

---

Measured pEC50 of individual entries
- Test system: HEK293 cells overexpressing APOL1 G2
- MEASUREMENT_NOTES: APOL1 G2 HEK293 cell rescue assay (reversal of cell death caused by overexpression of APOL1)
- Assay type: cell-based
- PROTOCOL_CONDITIONS: Homo sapiens, HEK293, HEK293 overexpressing APOL1 G2; geometric mean of at least 2 assay runs; † = single assay run
Notebook: values listed as pEC50 are -log10 of the concentration (mol/L).

Example results:
CC(c1c(F)cc(OCCN2CCC3(CC2)C(=O)Nc2ccc(Cl)cc23)cc1F)S(C)(=O)=O (stereo not shown) [Compound 141] :: 7.32
CN(c1c(F)cc(OCCN2CCC3(CC2)C(=O)Nc2ccc(Cl)cc23)cc1F)S(C)(=O)=O [Compound 127] :: 7.68
CC(O)c1ncc(OCCN2CCC3(CC2)C(=O)Nc2ccc(C(F)F)cc23)cc1C(F)(F)F (single isomer, unassigned) [Compound 287] :: 7.47

Please find the next compound below.
Using known records, supply pEC50 for CN1C(=O)CCc2cc(OCCN3CCC4(CC3)C(=O)Nc3ccc(C#N)cc34)cnc21 [Compound 79] 6.68

---

Measured EC50 of individual entries
- Test system: HEK293 clonal cell line overexpressing APOL1 G1
- MEASUREMENT_NOTES: APOL1 G1 HEK293 cell rescue assay (Example B3)
- Type: cell-based
- PROTOCOL_CONDITIONS: Homo sapiens, HEK293, HEK293 clonal line overexpressing APOL1 G1; geometric mean of at least 2 runs; † = single run; ¥ = concentration at 50% rescue estimated (no sigmoidal curve)
State the answer as a number, implicitly in nM.

CN1c2ccc(OCCN3CCC4(CC3)C(=O)Nc3ccc(Cl)cc34)cc2CCS1(=O)=O :: 124
C[C@]1(O)C[C@@H](N2C(=O)CCc3cc(OCCN4CCC5(CC4)C(=O)Nc4ccc(C#N)cc45)cc(C(F)(F)F)c32)C1 :: 40.1

Please find the next compound below.
Using known records, supply EC50 for C[C@@H](COc1ccc(S(C)(=O)=O)c(C(F)F)c1)N1CCC2(CC1)C(=O)Nc1ccc(Cl)cc12 (single isomer, unassigned) 153

---

- System: HEK293 cells overexpressing APOL1 G2
- MEASUREMENT_NOTES: APOL1 G2 HEK293 cell rescue assay (reversal of cell death caused by overexpression of APOL1)
- Format: cell-based
- PROTOCOL_CONDITIONS: Homo sapiens, HEK293, HEK293 overexpressing APOL1 G2; geometric mean of at least 2 assay runs; † = single assay run
pEC50: −log10 of the molar value.
Tick Yes if pEC50 is 7 or greater. Tick No if pEC50 is less than 7.

C[C@]1(O)C[C@@H](n2ccc3cc(OCCN4CCC5(CC4)C(=O)Nc4ccc(C(F)F)cc45)cnc32)C1 :: Yes
CC(=O)N1CCCc2cc(OCCN3CCC4(CC3)C(=O)N(C)c3ccccc34)ccc21 :: No

Does `CS(=O)(=O)C1(c2ccc(OCCN3CCC4(CC3)C(=O)Nc3ccc(Cl)cc34)cc2)CCOCC1` have a reported pEC50 of at least 7? Yes

Does `C[C@]1(O)C[C@@H](n2cnc3cc(OCCN4CCC5(CC4)C(=O)Nc4ccc(Cl)cc45)ccc32)C1` have a reported pEC50 of at least 7? No

Does `Cc1nc2cc(OCCN3CCC4(CC3)C(=O)Nc3ccc(Cl)cc34)cnc2n1[C@H]1C[C@@](C)(O)C1` have a reported pEC50 of at least 7? Yes

Does N#Cc1ccc2c(c1)C1(CCN(CCOc3ccc4c(c3)CCN3C(=O)CCC43)CC1)C(=O)N2 (stereo not drawn) [Compound 124] have a reported pEC50 of at least 7? No

Does `C[C@]1(O)C[C@@H](n2cnc3cc(OCCN4CCC5(CC4)C(=O)Nc4c(I)cc(Cl)cc45)cc(C(F)(F)F)c32)C1` have a reported pEC50 of at least 7? Yes
